Target: hNaV1.7 (Homo sapiens, UniProt Q15858)
Construct: expressed in transfected cells; host or cells: HEK293
Sequence (Q15858 whole entry): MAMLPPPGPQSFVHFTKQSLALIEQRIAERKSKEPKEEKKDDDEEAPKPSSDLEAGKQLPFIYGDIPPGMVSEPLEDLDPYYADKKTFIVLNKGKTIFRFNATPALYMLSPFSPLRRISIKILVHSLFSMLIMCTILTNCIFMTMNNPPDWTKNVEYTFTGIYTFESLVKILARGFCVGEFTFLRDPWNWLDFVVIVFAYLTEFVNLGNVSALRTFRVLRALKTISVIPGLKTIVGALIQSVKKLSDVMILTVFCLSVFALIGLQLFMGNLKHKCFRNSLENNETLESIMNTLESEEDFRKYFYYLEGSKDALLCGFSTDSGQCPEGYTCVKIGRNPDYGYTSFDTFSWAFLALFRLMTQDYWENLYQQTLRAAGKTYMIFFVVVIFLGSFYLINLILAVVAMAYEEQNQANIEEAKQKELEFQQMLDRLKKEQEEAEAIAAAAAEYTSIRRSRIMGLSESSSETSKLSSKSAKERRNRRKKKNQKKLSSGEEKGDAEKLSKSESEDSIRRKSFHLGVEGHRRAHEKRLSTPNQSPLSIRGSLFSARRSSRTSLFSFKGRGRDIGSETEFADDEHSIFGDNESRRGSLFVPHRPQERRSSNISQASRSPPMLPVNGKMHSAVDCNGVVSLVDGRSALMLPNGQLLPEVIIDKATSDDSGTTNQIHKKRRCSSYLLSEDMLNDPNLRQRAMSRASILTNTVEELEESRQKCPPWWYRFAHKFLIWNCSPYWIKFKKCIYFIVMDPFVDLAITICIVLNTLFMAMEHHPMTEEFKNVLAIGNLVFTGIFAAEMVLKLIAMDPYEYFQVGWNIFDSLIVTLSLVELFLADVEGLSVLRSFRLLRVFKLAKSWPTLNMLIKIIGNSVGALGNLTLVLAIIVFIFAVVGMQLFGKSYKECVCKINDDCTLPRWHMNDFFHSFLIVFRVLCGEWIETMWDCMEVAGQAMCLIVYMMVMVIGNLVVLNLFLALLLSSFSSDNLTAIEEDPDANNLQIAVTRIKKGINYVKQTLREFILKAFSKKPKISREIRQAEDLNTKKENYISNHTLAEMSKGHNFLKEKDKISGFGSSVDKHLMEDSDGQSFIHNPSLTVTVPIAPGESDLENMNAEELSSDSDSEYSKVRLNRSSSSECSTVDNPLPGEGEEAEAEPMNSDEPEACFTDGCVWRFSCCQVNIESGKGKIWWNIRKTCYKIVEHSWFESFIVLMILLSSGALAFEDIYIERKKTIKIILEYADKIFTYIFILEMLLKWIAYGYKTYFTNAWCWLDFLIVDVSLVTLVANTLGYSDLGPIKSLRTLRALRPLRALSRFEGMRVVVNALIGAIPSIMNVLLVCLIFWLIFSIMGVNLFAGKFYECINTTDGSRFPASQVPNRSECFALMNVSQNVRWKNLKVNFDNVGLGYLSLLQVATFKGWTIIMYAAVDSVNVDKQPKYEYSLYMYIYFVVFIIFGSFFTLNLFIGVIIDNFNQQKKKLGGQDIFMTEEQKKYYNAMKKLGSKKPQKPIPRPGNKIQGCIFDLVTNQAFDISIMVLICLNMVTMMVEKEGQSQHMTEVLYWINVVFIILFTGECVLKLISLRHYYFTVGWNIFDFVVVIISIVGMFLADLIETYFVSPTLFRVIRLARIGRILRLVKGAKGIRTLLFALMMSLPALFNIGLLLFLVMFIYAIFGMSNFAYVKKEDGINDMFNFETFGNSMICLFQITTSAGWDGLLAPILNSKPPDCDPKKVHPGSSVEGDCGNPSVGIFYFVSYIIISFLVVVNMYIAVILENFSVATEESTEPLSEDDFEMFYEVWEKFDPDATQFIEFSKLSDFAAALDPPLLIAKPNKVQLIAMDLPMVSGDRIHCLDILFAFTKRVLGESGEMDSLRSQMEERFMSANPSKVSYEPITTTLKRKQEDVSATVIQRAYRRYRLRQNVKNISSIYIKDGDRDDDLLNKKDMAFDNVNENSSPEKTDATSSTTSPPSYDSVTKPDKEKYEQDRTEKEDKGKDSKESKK
Assay: QPatch NaV1.7 assay
Type: cell-based
Conditions: HEK293-hNaV1.7 cells, QPatch16x; holding voltage −90 mV, where most of the channels are in a closed state; read-out: QP Nav1.7 - 90 mV pIC50 (converted)
Where a name gives a salt, the structure may show the parent alone.
measurement_name: IC50 (µM)

Please review the entries below; each comes with its answer.
molecule: Cc1cc(-c2cc(OC(F)(F)F)ccc2F)nc([C@@H]2CC[C@]3(CCN(C)C3=O)N2)n1 [Example 34, hydrochloride]
study_system: hNaV1.7 (Homo sapiens, UniProt Q15858)
unit_name: µM
IC50: 79.4
//
molecule: Cc1cc(-c2ccc(C(F)(F)F)cc2)nc([C@H]2CC[C@]3(CC(C)(C)NC3=O)N2)n1 [Example 46, hydrochloride]
study_system: hNaV1.7 (Homo sapiens, UniProt Q15858)
unit_name: µM
IC50: 25.1

A: Cc1cc(-c2ccc(C(F)(F)F)cc2)nc([C@@H]2CC[C@]3(CCN(C)C3=O)N2)n1 [Example 5, hydrochloride]
B: Cc1cc(-c2ccc(C(F)(F)F)cc2)nc([C@H]2CC[C@@]3(CC(C)(C)NC3=O)N2)n1 [Example 43, hydrochloride]
// select label with min value of measured IC50 from [ A , B ] Answer with the label corresponding to your selection.
B
(B: 31.6 µM, A: 79.4 µM)
